target: PI3K α (Homo sapiens, UniProt P42336); construct: purchased Upstate; experiment: In vitro IC50, PI3K α (p110α/p85α inhibition assay); type: biochemical; conditions: in vitro kinase assay; read-out: IC50(nM) PI3K α
Sequence (P42336 whole entry): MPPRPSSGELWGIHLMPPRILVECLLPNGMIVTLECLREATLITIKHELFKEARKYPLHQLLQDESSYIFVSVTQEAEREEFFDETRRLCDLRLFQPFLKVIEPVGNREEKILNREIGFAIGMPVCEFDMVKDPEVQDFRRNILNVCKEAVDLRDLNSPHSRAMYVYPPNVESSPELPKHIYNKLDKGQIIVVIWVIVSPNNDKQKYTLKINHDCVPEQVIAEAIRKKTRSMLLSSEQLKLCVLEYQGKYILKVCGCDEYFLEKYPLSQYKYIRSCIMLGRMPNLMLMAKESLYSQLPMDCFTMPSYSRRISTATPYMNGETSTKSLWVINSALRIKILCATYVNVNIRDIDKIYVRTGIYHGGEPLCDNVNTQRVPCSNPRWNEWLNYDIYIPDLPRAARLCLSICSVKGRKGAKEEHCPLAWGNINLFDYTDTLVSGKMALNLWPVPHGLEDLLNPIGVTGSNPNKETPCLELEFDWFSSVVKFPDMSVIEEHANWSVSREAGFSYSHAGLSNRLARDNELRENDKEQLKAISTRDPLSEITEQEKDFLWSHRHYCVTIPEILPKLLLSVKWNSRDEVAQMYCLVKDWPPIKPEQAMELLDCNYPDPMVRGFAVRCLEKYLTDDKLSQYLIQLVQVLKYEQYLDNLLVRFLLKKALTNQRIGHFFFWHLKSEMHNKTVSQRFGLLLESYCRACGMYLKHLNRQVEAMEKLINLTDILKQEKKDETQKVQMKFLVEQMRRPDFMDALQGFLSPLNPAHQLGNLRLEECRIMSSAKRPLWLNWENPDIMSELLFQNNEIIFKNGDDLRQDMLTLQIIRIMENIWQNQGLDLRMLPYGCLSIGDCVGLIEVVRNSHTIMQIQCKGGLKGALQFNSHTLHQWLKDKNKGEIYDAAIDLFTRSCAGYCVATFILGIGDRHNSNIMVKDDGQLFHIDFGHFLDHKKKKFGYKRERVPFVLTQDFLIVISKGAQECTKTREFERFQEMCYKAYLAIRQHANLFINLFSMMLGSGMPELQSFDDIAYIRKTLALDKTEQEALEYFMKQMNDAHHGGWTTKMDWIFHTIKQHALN
Sequence (P27986 whole entry partner): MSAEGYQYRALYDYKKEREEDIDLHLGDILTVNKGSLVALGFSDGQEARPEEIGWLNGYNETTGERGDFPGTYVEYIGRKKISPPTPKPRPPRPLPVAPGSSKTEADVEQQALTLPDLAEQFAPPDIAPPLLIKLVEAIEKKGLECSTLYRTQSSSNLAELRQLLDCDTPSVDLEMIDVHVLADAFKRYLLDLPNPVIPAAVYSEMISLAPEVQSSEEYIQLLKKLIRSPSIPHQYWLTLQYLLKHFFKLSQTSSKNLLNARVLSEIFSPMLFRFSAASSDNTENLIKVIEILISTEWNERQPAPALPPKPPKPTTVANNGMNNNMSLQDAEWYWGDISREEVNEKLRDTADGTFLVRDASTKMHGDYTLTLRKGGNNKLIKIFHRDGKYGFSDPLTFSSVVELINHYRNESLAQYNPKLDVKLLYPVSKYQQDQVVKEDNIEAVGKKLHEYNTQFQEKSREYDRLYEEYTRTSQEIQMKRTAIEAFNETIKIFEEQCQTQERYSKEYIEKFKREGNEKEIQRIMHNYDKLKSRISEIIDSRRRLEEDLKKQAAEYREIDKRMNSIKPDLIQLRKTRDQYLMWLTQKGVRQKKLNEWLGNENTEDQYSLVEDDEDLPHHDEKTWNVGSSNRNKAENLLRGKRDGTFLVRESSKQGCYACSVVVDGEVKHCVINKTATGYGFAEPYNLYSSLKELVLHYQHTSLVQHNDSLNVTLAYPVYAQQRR
test-readout: IC50

# lookup: PI3K α (Homo sapiens, UniProt P42336) IC50, key = `Cc1cccc2cc(Cn3nc(-c4cn[nH]c4)c4c(N)ncnc43)nc(OC3CCN(C)CC3)c12` < 10000 nM

Look up PI3K α (Homo sapiens, UniProt P42336) data: IC50 of CC(Nc1ncnc2[nH]cnc12)c1cc2ccccc2c(OC2CCN(S(C)(=O)=O)CC2)n1 (stereo not shown) , then report it. > 10000 nM

Please report the measured IC50 for `C[C@H](Nc1ncnc2[nH]cnc12)c1cc2ccccc2c(-c2cccnc2)n1` tested on PI3K α (Homo sapiens, UniProt P42336). > 10000 nM

Answer with IC50 of Cc1cccc2cc(C(C)Nc3ncnc4[nH]cnc34)nc(CCN3CCN(S(C)(=O)=O)CC3)c12 (stereo not shown) measured for PI3K α (Homo sapiens, UniProt P42336). < 10000 nM

---

biological target: PI3K α (Homo sapiens, UniProt P42336); construct: purchased Upstate; test: In vitro IC50, PI3K α (p110α/p85α inhibition assay); type: biochemical; details: in vitro kinase assay; read-out: IC50(nM) PI3K α
test-readout: IC50

Give the reported value of IC50 for this record: C[C@@H](Nc1ncnc2[nH]cnc12)c1cc2cccc(Cl)c2c(N2CCN(S(C)(=O)=O)CC2)n1 [Compound 83] > 10000 nM

Identify IC50 associated with the molecule CS(=O)(=O)N1CCC(Oc2nc(Cn3nc(-c4cn[nH]c4)c4c(N)ncnc43)cc3cccc(Cl)c23)CC1 [Compound 58] > 10000 nM

Please list IC50 recorded for the molecule Cc1cccc2cc([C@@H](C)Nc3ncnc4[nH]cnc34)nc(OC3CCN(S(C)(=O)=O)CC3)c12 [Compound 87] > 10000 nM

For the molecule CC(Nc1ncnc2[nH]cnc12)c1cc2cccc(Cl)c2c(CCN2CCN(S(C)(=O)=O)CC2)n1 (stereo not drawn) [Compound 80] , give its measured IC50 value. > 10000 nM

Fill in reported IC50 for this entry: CCN1CCC(Oc2nc(C(C)Nc3ncnc4[nH]cnc34)cc3cccc(C)c23)CC1 (stereo not drawn) [Compound 16] > 10000 nM

Item Nc1ncnc2c1c(-c1cn[nH]c1)nn2Cc1cc2cccc(Cl)c2c(N2CCOCC2)n1 [Compound 66] : provide IC50 < 10000 nM

Answer with reported IC50 of Cc1cccc2cc(Cn3nc(-c4ccc5nc(N)sc5c4)c4c(N)ncnc43)nc(OC(C)C)c12 [Compound 31] < 100 nM

Report IC50 for C[C@H](Nc1ncnc2[nH]cnc12)c1nc(OCCN2CCCC2)c2c(Cl)cccc2n1 [Compound 95] < 10000 nM

Please give measured IC50 of the following entry: CCN1CCC(Oc2nc(Cn3nc(-c4cn[nH]c4)c4c(N)ncnc43)cc3cccc(C)c23)CC1 [Compound 7] < 10000 nM

Please supply the value of reported IC50 for the item Cc1cccc2cc(Cn3nc(-c4ccc5oc(N)nc5c4)c4c(N)ncnc43)nc(OC3CCN(C)CC3)c12 [Compound 5] < 100 nM

Please report the measured IC50 for CC(=O)N1CCN(CCc2nc(C(C)Nc3ncnc4[nH]cnc34)cc3cccc(Cl)c23)CC1 (stereo not drawn) [Compound 81] > 10000 nM

Quickly give me recorded IC50 for C[C@H](Nc1ncnc2[nH]cnc12)c1cc2cccc(Cl)c2c(OC2CCN(S(C)(=O)=O)CC2)n1 [Compound 60] > 10000 nM

Determine its reported IC50: CC(=O)N1CCC(Nc2nc(C(C)Nc3ncnc4[nH]cnc34)cc3cccc(C)c23)CC1 (stereo not drawn) [Compound 49] > 10000 nM

Read off the recorded IC50 for C[C@H](Nc1ncnc2[nH]cnc12)c1cc2cccc(Cl)c2c(CCN2CCCC2)n1 [Compound 90] < 10000 nM

// fetch IC50 given entry CCN(Cc1cc2cccc(C)c2c(OC2CCN(C(C)C)CC2)n1)c1ncnc2[nH]cnc12 [Compound 11] > 10000 nM

---

biological target: PI3K α (Homo sapiens, UniProt P42336); construct: purchased Upstate; test: In vitro IC50, PI3K α (p110α/p85α inhibition assay); type: biochemical; details: in vitro kinase assay; read-out: IC50(nM) PI3K α
Exercise: for every item that follows, state its recorded IC50.

Give measured IC50 for CCN1CCC(Oc2nc(Cn3nc(-c4ccc5oc(N)nc5c4)c4c(N)ncnc43)cc3cccc(C)c23)CC1 [Compound 6] (PI3K α (Homo sapiens, UniProt P42336)). < 1000 nM

Provide PI3K α (Homo sapiens, UniProt P42336) IC50 reading for CC(=O)N1CCN(c2nc(Cn3nc(-c4cn[nH]c4)c4c(N)ncnc43)cc3cccc(Cl)c23)CC1 [Compound 70] . > 10000 nM

State, for PI3K α (Homo sapiens, UniProt P42336), measured IC50 of the compound listed here: C[C@H](Nc1ncnc2[nH]cnc12)c1cc2cccc(Cl)c2c(N2CCOCC2)n1 [Compound 62] > 10000 nM

Provide the reported IC50 (system: PI3K α (Homo sapiens, UniProt P42336)) for Cc1cccc2cc(CNc3ncnc4[nH]cnc34)nc(OC3CCN(C(C)C)CC3)c12 [Compound 10] > 10000 nM

Enter recorded IC50 with PI3K α (Homo sapiens, UniProt P42336) for CN(C)c1nc(Cn2nc(-c3ccc4oc(N)nc4c3)c3c(N)ncnc32)cc2ccccc12 [Compound 2] here. < 1000 nM

// fetch IC50; item: CC(Nc1ncnc2[nH]cnc12)c1cc2cccc(Cl)c2c(CN2CCN(S(C)(=O)=O)CC2)n1 (centres unmarked) [Compound 59] ; system: PI3K α (Homo sapiens, UniProt P42336) > 10000 nM

Give PI3K α (Homo sapiens, UniProt P42336) IC50 for the following compound: C[C@H](Nc1ncnc2[nH]cnc12)c1cc2cccc(Cl)c2c(N2CCCC2)n1 [Compound 63] > 10000 nM

Give IC50; test system PI3K α (Homo sapiens, UniProt P42336); compound Cc1cccc2cc(C(C)Nc3ncnc4[nH]cnc34)nc(OC3CCNCC3)c12 (centres unmarked) [Compound 14] > 10000 nM

---

Target: PI3K δ (Homo sapiens, UniProt O00329)
Construct: purchased Upstate
Sequence (O00329 whole entry): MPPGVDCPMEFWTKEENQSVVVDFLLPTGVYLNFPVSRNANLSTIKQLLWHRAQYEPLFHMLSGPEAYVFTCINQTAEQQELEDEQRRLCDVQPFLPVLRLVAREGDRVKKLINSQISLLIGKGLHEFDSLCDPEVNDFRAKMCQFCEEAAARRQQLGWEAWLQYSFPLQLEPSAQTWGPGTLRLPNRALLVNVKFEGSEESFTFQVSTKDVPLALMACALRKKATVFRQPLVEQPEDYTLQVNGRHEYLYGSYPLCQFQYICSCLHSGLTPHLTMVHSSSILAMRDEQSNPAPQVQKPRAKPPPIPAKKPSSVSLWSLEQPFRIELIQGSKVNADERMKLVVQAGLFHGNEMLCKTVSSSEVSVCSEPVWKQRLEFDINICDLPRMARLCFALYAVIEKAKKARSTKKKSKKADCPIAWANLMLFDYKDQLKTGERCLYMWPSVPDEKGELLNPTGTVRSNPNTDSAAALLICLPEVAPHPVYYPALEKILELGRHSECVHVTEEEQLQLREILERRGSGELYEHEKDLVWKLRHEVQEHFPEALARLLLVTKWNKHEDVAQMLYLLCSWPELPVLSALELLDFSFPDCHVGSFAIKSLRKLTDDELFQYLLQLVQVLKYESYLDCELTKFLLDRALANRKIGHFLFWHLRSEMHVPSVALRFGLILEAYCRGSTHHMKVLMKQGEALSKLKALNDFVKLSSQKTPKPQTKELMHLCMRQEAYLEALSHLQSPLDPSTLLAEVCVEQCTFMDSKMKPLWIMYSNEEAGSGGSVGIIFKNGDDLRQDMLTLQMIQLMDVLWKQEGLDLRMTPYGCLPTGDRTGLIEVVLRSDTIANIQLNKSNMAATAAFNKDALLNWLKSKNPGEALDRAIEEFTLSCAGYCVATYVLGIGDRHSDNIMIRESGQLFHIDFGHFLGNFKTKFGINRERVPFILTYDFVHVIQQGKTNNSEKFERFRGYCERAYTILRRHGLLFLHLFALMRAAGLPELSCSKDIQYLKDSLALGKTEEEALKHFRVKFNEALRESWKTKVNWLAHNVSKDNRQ
Sequence (P27986 whole entry partner): as the sequence (P27986 whole entry partner) above
Test: In vitro IC50, PI3K δ (p110δ/p85α inhibition assay)
Type: biochemical
Settings: in vitro kinase assay; read-out: IC50(nM) PI3K δ
Protocol: IC50 values are measured using either a standard TLC assay for lipid kinase activity (described below) or a high-throughput membrane capture assay. […] The TLC plates are then dried, exposed to a phosphorimager screen (Storm, Amersham), and quantitated. Other commercial kits or systems for assaying PI3-K activities are available. […] The plate is sealed, incubated for 1 hour at room temperature, and then read on an appropriate plate reader. Data is analyzed and IC50s are generated using GraphPad Prism 5.
test-readout: IC50

Give the reported value of IC50 for this record: `C[C@H](Nc1ncnc2[nH]cnc12)c1cc2cccc(Cl)c2c(OCCN2CCCC2)n1` < 100 nM

Supply recorded IC50 for `Cc1cccc2cc(Cn3nc(-c4ccc5nc(N)sc5c4)c4c(N)ncnc43)nc(OC(C)C)c12` here. < 100 nM

Give me measured IC50, please, for this compound: Cc1cccc2cc(C(C)Nc3ncnc4[nH]cnc34)nc(OC3CCN(C(C)C)CC3)c12 (stereo not shown) < 100 nM

Check the records and state IC50 for Cc1cccc2cc(C(C)Nc3ncnc4[nH]cnc34)nc(N3CCOCC3)c12 (stereo not shown) < 100 nM

Recall and state the measured IC50 for `C[C@H](Nc1ncnc2[nH]cnc12)c1cc2cccc(Cl)c2c(OCC2CCN(S(C)(=O)=O)CC2)n1` . < 100 nM

Supply IC50 value. Item: `Cc1cccc2cc(Cn3nc(-c4ccc5oc(N)nc5c4)c4c(N)ncnc43)nc(CCN3CCN(C)CC3)c12` < 100 nM

Identify measured IC50 corresponding to `Cc1cccc2cc(Cn3nc(-c4cn[nH]c4)c4c(N)ncnc43)nc(OC(C)C)c12` < 10000 nM

Find the measured IC50 of CC(Nc1ncnc2[nH]cnc12)c1cc2ccccc2c(OC2CCN(C)CC2)n1 (stereo not shown) and report it. < 1000 nM

# return recorded IC50 for input `CC(=O)N1CCN(c2nc([C@H](C)Nc3ncnc4[nH]cnc34)cc3cccc(Cl)c23)CC1` < 1000 nM

Supply measured IC50 of `C[C@H](Nc1ncnc2[nH]cnc12)c1cc2cccc(Cl)c2c(N(C)C)n1` in your reply. < 100 nM

Specify measured IC50 for CC(=O)N1CCC(Nc2nc(C(C)Nc3ncnc4[nH]cnc34)cc3cccc(C)c23)CC1 (stereo not shown) . < 1000 nM

Quick one: give measured IC50 for `Cc1cccc2cc(Cn3nc(-c4ccc5oc(N)nc5c4)c4c(N)ncnc43)nc(N3CCCC3)c12` < 100 nM

Answer with reported IC50 of `Cc1cccc2cc(CN(C)c3ncnc4[nH]cnc34)nc(OC3CCN(C(C)C)CC3)c12` < 1000 nM

Note IC50 for the compound shown: Cc1cccc2cc(C(C)Nc3ncnc4[nH]cnc34)nc(OC3CCN(S(C)(=O)=O)CC3)c12 (stereo not shown) < 100 nM

Provide measured IC50 value, entry: `Cc1cccc2cc(Cn3nc(-c4cn[nH]c4)c4c(N)ncnc43)nc(N3CCOCC3)c12` < 100 nM

Identify the reported IC50 for the following entry. `CC(=O)Nc1nc2ccc(-c3nn(Cc4cc5cccc(C)c5c(OC(C)C)n4)c4ncnc(N)c34)cc2s1` > 10000 nM
